test summary: protein stability index of a GFP-peptide fusion (yeast GPS) (PSI 1-4); higher = more stable; sorted into four equal gates, so the index is relative within each strain
condition label: pdr5∆
Hi there, I'd appreciate the recorded protein stability index for every entry that follows.
Answers are plain numbers.

Observe how each entry below is paired with its result.
Endpoint output: protein stability index of LWINYIKELLNITKNLK [POP4] . Value?
1.56

Same question for TVQSWLCDLFVNGSITD [NUT1] please.
1.45

Continuing:
Endpoint output: protein stability index of TSPEKKDGGDKPPSSAF [YAR002W/NUP60] . Value?
3.34

###

test summary: protein stability index of a GFP-peptide fusion (yeast GPS) (PSI 1-4); higher = more stable; sorted into four equal gates, so the index is relative within each strain
condition label: ubr1∆
Hi there, I'd appreciate the recorded protein stability index for every entry that follows.
Answers are plain numbers.

Observe how each entry below is paired with its result.
Endpoint output: protein stability index of IHLQRFDEGTTLLSPKD [RPO21] . Value?
2.98

Same question for ISNYNTKYTDDMATGSN [SRB8] please.
2.94

Okay, now this sequence:
Endpoint output: protein stability index of TESNELIQKLQNSANNN [IRR1] . Value?
3.09

###

test summary: protein stability index of a GFP-peptide fusion (yeast GPS) (PSI 1-4); higher = more stable; sorted into four equal gates, so the index is relative within each strain
condition label: ubr1∆
readout kind: protein stability index
One number for each entry.

Endpoint output: protein stability index of TLSNAERAKNVNGLLQV [GAL11] . Value?
3

Give one value of protein stability index per listed sequence.
1. TQTVSGTPPMLHQRTHK [DSN1]
2. NRRGMLALSGTSASNTS [SNF5]

2.98
2.92

Give one value of protein stability index per listed sequence.
1. KRKPAKSSSNRSCVSNS [RPN4]
2. NRTMDGKPVSLPLLYNF [FAS1]

2.98
2.93

Give one value of protein stability index per listed sequence.
1. ILGQTMSIGTGSFKVVK [RPO31]
2. PASNILRRTTQRVFDET [YDL116W/NUP84]
3. SDAEEEEGEYKNAANTE [ISW2]
4. TNSHLPAGKQVEISLVN [FAS1]

1: 2.99; 2: 2.62; 3: 3.3; 4: 3.12

Give one value of protein stability index per listed sequence.
1. QGTGKKTASLGNSKDDL [ISW2]
2. FKHGPMSLINDAMVTRT [SMD2]
3. ILNSHFDALRSLDDNST [YJL041W/NSP1]
4. PLQGIFHNAVFNSFRRF [QCR8]

1. 3.42
2. 3.01
3. 2.55
4. 1.96

###

test summary: protein stability index of a GFP-peptide fusion (yeast GPS) (PSI 1-4); higher = more stable; sorted into four equal gates, so the index is relative within each strain
condition label: ubr1∆
readout kind: protein stability index
Numbers only.

Endpoint output: protein stability index of FNEKFPSLIQEEEEDTT [NUT1] . Value?
3.06

Give one value of protein stability index per listed sequence.
1. FNSVVNLSRYPKSGIDI [MTR3]
2. KKEYIELDILNKGWKLQ [SRB4]
3. LPKIIQLQGPQWMNEMV [SOH1]
4. YDGDTVTFSPTGRLFQV [PRE5]
5. PLRENTNVLDVKDKEED [YDL116W/NUP84]
6. RQNRRPELGDKFSSRHG [RET1]
7. LPTPTPTEMEPDLDTEC [SWI1]

1. 3.03
2. 2.94
3. 3.06
4. 3.08
5. 2.99
6. 2.63
7. 2.94

###

test summary: protein stability index of a GFP-peptide fusion (yeast GPS) (PSI 1-4); higher = more stable; sorted into four equal gates, so the index is relative within each strain
condition label: san1∆
readout kind: protein stability index
Numbers only.

Observe how each entry below is paired with its result.
Endpoint output: protein stability index of NEDMVRRANFYKENEAM [SNF12] . Value?
3.39

Same question for LKRSTELLETVSLTKRK [YIL149C/MLP2] please.
2.09

Same question for ATKEGVVLGVEKRATSP [PUP2] please.
3.15

Same question for NSSEIQSAIRPAGQATQ [RPL4A] please.
2.77

Okay, now this sequence:
Endpoint output: protein stability index of LLLKDQQTAKKLIPKLY [ECM29] . Value?
2.32

###

test summary: protein stability index of a GFP-peptide fusion (yeast GPS) (PSI 1-4); higher = more stable; sorted into four equal gates, so the index is relative within each strain
condition label: san1∆
readout kind: protein stability index
Numbers only.

Observe how each entry below is paired with its result.
Endpoint output: protein stability index of QREEAKKVVKKAFEERH [RPL27A] . Value?
2.63

Same question for HLVWMKGTNDEGTSISV [YCS4] please.
1.9

Same question for EKVFNAYPAAREQFLNA [FAS1] please.
3.1

Same question for STSNTPSPPNVIITDGT [YDL088C/ASM4] please.
2.9

Same question for FGPHVDVNDVLTKYIRS [GRR1] please.
3.41

Same question for QTQQDLPKVRYNVEKVK [NSL1] please.
2.75

Okay, now this sequence:
Endpoint output: protein stability index of LIGRPPLLVPGMTPCTV [FAS1] . Value?
1.81

###

test summary: protein stability index of a GFP-peptide fusion (yeast GPS) (PSI 1-4); higher = more stable; sorted into four equal gates, so the index is relative within each strain
condition label: pdr5∆
Hi there, I'd appreciate the recorded protein stability index for every entry that follows.
Answers are plain numbers.

Endpoint output: protein stability index of PEIDNLDDLVVLKKKNI [RRP6] . Value?
2.15

Give one value of protein stability index per listed sequence.
1. QLFRTNKVQIMIATNVA [PRP28]
2. RENGKGGQIAHILFQNN [ROX3]
3. TGLNGSGKSNILDAICF [SMC2]
4. RVVTVDGKLIDISGTMS [SMC4]
5. WDLLQSGSQNISEFDSF [RPN12]
6. NGTISKTGKKNKVAKKN [SRP14]
7. DDTAANNGDKDHLKLVS [YIL149C/MLP2]

[1.43, 2.32, 2.98, 3.11, 3.14, 3.45, 3.35]

Give one value of protein stability index per listed sequence.
1. SMILGVAASIIPFPDHN [RPB2]
2. RRLDALVEKVYARFKND [ITC1]

2.41
1.93

Give one value of protein stability index per listed sequence.
1. AASTPTTTATPHANPIT [PGD1]
2. TKKSKLESTKAETDYVD [DSN1]
3. VFYRGMTMQVAVPRDEL [FAS1]
4. PRRYGKGSRQCRVCSSH [RPS29A]
5. ILARNDEEMAVLTRMDE [SNF2]
6. LVKALEDIMVHYDNTTR [RPO21]

1: 2.85; 2: 2.9; 3: 1.86; 4: 3.01; 5: 2.87; 6: 1.91

###

test summary: protein stability index of a GFP-peptide fusion (yeast GPS) (PSI 1-4); higher = more stable; sorted into four equal gates, so the index is relative within each strain
condition label: ubr1∆
Give met when the value for protein stability index is at least 3. Give not met when it is less.

Assess whether reported protein stability index for GKNVINRERFISKLFLR [SMD2] sits at 3 or higher.
not met

Same question for SHFDYNTLEFIIEQLSI [YCG1] please.
not met

Same question for IFALVFSSNERYFFWLQ [RPN13] please.
not met

Same question for AICRNHIMEPCIECQPK [HRT1] please.
not met

Same question for LAALNVWYGLSDGEDGH [SSN2] please.
met

Same question for VDNDNWVYKTKGDGMTS [RPN1] please.
met

Same question for FGPHVDVNDVLTKYIRS [GRR1] please.
met

Same question for REPRVVSALQMLKQHLF [PUP1] please.
not met

Continuing:
Assess whether reported protein stability index for EYSPEILQIREEIPSKS [RRP6] sits at 3 or higher.
not met

Same question for QRTCLMTVTFLILAGQV [YCS4] please.
not met

Same question for AQGKEFGVTKARWPAKS [RPL17A] please.
met

Same question for SMINSVSPTNVMGTPLT [PGD1] please.
not met

Same question for VPHSHPSDMVIPDHLAE [SNF12] please.
not met

Same question for GTPLFTFGKKADVTSNI [YOR098C/NUP1] please.
not met

Same question for SGNLPLNELSAKDKEIY [RPN13] please.
met

###

test summary: protein stability index of a GFP-peptide fusion (yeast GPS) (PSI 1-4); higher = more stable; sorted into four equal gates, so the index is relative within each strain
condition label: san1∆
readout kind: protein stability index
One number for each entry.

Observe how each entry below is paired with its result.
Endpoint output: protein stability index of ANKTNLIESLNTIRQNV [YML103C/NUP188] . Value?
1.73

Same question for AHRIMLTNILRMMGCVK [FAS2] please.
1.9

Same question for TEEELQAAVPDNAEDDS [BRN1] please.
3.05

Give one value of protein stability index per listed sequence.
1. NDPEYMDTSDDAFVATA [DLS1]
2. PNFEASFVHGVVGQLFQ [SMC2]

[3.33, 2.58]
